Target Or Test System: Mitogen-activated protein kinase 12 (Homo sapiens)
Protocol Conditions: at 0.1 µM
Description: GSK_PKIS: P38gamma mean inhibition at 0.1 uM [Nanosyn]
Observation Type: inhibition (%)
Entry rule: numbers only, all in %.

Some solved cases for reference:
- NS(=O)(=O)c1ccc(-c2cc3ccncc3cc2OCc2ccccc2)cc1: -0.17
- CCn1c(-c2nonc2N)nc2ccc(F)cc21: 3.81
- COC(=O)c1ccc2c(c1)C(=Cc1cc(Br)c(O)c(Br)c1)C(=O)N2: 4.05
- N#Cc1cccc(Nc2nccc(-c3cnn4ncccc34)n2)c1: 4.57
- C[C@@H](Oc1cc(-n2cnc3ccc(OCC4CCN(C)CC4)cc32)sc1C(N)=O)c1ccccc1C(F)(F)F: -1.88
- Nc1ccc(C#Cc2cncnc2Nc2ccc(OCc3cccc(F)c3)c(Cl)c2)cc1: 2.15
- CN(c1ccc(NC(=O)Nc2ccc(OC(F)(F)F)cc2)cc1)c1ccnc(Nc2cccc(S(N)(=O)=O)c2)n1: 2.28
- Cc1ccc2c(c1)/C(=N/Nc1ccc(S(N)(=O)=O)cc1)C(=O)N2: 0.27
- CS(=O)(=O)CCNCc1nc(-c2ccc3ncnc(Nc4ccc(OCc5cccc(C(F)(F)F)c5)cc4)c3c2)cs1: 0.83
- c1ccc(Nc2ncc(-c3ccccc3)o2)cc1: 2.89

From here, focus on the item given below.
Quick one: inhibition for Cc1ccc(O)cc1Nc1ccnc2ccc(S(C)(=O)=O)cc12 ? 0.62

----------
Target Or Test System: Tyrosine-protein kinase receptor TYRO3 (Homo sapiens) (UniProt Q06418);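 note: reported percentages are averaged inhibition values of TYRO3 kinase activity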
Sequence (whole entry): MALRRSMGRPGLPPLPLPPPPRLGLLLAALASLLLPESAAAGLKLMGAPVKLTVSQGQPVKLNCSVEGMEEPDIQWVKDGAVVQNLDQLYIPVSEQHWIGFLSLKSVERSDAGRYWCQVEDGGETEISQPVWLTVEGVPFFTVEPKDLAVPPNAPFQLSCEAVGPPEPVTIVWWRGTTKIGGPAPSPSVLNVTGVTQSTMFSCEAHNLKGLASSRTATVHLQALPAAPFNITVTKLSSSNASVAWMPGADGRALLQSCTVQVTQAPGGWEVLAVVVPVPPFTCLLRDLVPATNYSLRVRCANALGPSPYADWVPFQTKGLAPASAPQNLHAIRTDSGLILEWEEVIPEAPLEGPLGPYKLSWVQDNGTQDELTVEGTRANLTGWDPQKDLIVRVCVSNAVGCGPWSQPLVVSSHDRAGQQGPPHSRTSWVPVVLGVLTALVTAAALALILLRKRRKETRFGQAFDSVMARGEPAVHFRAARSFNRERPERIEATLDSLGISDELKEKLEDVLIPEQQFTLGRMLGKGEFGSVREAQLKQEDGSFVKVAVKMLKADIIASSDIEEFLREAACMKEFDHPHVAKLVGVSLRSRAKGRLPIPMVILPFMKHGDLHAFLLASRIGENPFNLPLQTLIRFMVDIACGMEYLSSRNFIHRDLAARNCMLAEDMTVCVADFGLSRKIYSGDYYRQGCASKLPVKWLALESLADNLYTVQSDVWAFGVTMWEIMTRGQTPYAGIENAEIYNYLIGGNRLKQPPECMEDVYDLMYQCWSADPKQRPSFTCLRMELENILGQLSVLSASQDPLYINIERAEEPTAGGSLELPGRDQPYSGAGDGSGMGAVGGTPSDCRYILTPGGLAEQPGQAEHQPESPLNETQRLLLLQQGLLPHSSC
Protocol Conditions: at 0.1 µM
A collection of compounds and their measured inhibition
Reply numerically in %, unit not repeated.

Examples with answers:
• COc1ccc(-c2nn3ncccc3c2-c2ccnc(Nc3cccc(C(F)(F)F)c3)n2)cc1 = 1.68
• CS(=O)(=O)Nc1cccc(-c2ccc3c(NC(=O)C4CC4)n[nH]c3c2)c1 = 2.53
• Cc1cc(Cl)cc2c1NC(=O)C2=NNc1ccc(S(N)(=O)=O)cc1 = 1.11
• Cc1ccc(Nc2ccnc(Nc3cccc(C(N)=O)c3)n2)cc1O = 13.1
• CCS(=O)(=O)c1ccc(OC)c(Nc2ncc(-c3cccc(OC)c3)o2)c1 = 7.64

Now look at this one.
For the compound shown here, Cc1ccc2c(c1)/C(=N/Nc1ccc(S(N)(=O)=O)cc1)C(=O)N2 , give the reported inhibition. -0.02
